// data source = patent US11629201B2

# Tested on: PC-3 PIP/flu tumor-bearing mice
# assay.procedure: Biodistribution studies in PC-3 PIP/flu tumor-bearing mice
# condition.notes: 48 h p.i.

[
  {
    "compound": "O=C(O)CCC(NC(=O)NC(CCCCNC(=O)C(Cc1ccc2ccccc2c1)NC(=O)C1CCC(CNC(=O)C(CCCCNC(=O)CN2CCN(CC(=O)O)CCN(CC(=O)O)CCN(CC(=O)O)CC2)NC(=O)CCCCCCC(=O)NC(CCCCNC(=O)CCCc2ccc(I)cc2)C(=O)O)CC1)C(=O)O)C(=O)O (stereo not shown) [^177Lu-PSMA-ALB-04, metal not drawn]",
    "Muscle (% IA/g)": 4.62
  },
  {
    "compound": "O=C(O)CCC(NC(=O)NC(CCCCNC(=O)C(Cc1ccc2ccccc2c1)NC(=O)C1CCC(n2cc(CC(NC(=O)CN3CCN(CC(=O)O)CCN(CC(=O)O)CCN(CC(=O)O)CC3)C(=O)NC(CCCCNC(=O)CCCc3ccc(I)cc3)C(=O)O)nn2)CC1)C(=O)O)C(=O)O (stereo not shown) [^177Lu-PSMA-ALB-01, metal not drawn]",
    "Muscle (% IA/g)": 1.35
  },
  {
    "compound": "O=C(O)CCC(NC(=O)NC(CCCCNC(=O)C(Cc1ccc2ccccc2c1)NC(=O)C1CCC(CNC(=O)C(CCCCNC(=O)CN2CCN(CC(=O)O)CCN(CC(=O)O)CCN(CC(=O)O)CC2)NC(=O)CC(NC(=O)CC(NC(=O)CCCc2ccc(I)cc2)C(=O)O)C(=O)O)CC1)C(=O)O)C(=O)O (stereo not shown) [^177Lu-PSMA-ALB-05, metal not drawn]",
    "Muscle (% IA/g)": 0.20
  },
  {
    "compound": "O=C(O)CCC(NC(=O)NC(CCCCNC(=O)C(Cc1ccc2ccccc2c1)NC(=O)C1CCC(CNC(=O)C(CCCCNC(=O)CCCc2ccc(I)cc2)NC(=O)CN2CCN(CC(=O)O)CCN(CC(=O)O)CCN(CC(=O)O)CC2)CC1)C(=O)O)C(=O)O (stereo not shown) [^177Lu-PSMA-ALB-03, metal not drawn]",
    "Muscle (% IA/g)": 1.32
  }
]
